target desc: Carboxy-terminal domain RNA polymerase II polypeptide A small phosphatase 1 (Homo sapiens)
experimental protocol: Scp-1 phosphatase inhibitors, primary screen, biochemical, colorimetric, uHTS (AID 493091);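 note: plate controls were DMSO wells with enzyme for no effect and wells lacking enzyme for full effect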
particulars: Recombinant Scp1, phosphopeptide, malachite green phosphate absorbance; at 20 µM; stronger effect = higher value
The whole screen tested about 340,000 compounds, of which about 3,000 (0.88%) were called active. The list comes from a sample in which actives are over-represented; it also holds close analogues and randomly drawn compounds.
parameter measured: inhibition (%)
Entry rule: numbers only, all in %.

Example results:
Cc1noc(C)c1-c1ccc2ncnc(NC(C)c3ccco3)c2c1 (stereo not given)
8.09
COc1ccc(C(=O)NC(=S)Nc2ccccc2N2CCN(S(C)(=O)=O)CC2)cc1OC
-10.7

In: For the compound O=C(NCCC1=CCCCC1)c1ccc(-n2cncn2)cc1 , what inhibition is on record?
Out: 0.7

In: Fill in: inhibition of N#CCC(=O)Nc1ccc(C(=O)OCC(=O)Nc2sc3c(c2C#N)CCCC3)cc1 is ___
Out: 1.62

In: Fill in the blank: the reported inhibition of C#CCOCCOCCOCCNc1nc(N2CCN(C(=O)C([C@@H](C)O)n3cc([C@@H](N)CCCCN)nn3)CC2)nc(N2CCN(C(=O)[C@H](CCCCN)n3cc(CN)nn3)CC2)n1 (stereo not given in full) is ____.
Out: -0.3
